Measured Emax values are reported for all entries that follow.
biological target: Mu-type opioid receptor (Homo sapiens, UniProt P35372); experiment: Partial agonist activity at human mu opioid receptor expressed in CHO cells assessed as [35S]GTPgammaS binding after 60 mins by scintillation counting relative to untreated-control; type: functional, cell-based
Sequence (P35372 whole entry): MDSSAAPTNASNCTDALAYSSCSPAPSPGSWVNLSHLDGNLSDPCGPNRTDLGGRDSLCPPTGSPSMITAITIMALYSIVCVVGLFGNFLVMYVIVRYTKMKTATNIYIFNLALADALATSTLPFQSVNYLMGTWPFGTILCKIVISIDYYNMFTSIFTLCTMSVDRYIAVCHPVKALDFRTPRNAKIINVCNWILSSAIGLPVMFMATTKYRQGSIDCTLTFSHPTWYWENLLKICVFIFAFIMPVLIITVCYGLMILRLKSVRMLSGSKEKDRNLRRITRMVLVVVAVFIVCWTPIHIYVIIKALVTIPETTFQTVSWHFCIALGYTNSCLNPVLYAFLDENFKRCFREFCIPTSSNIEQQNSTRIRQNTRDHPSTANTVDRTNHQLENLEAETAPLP
value-kind: Emax

1. COc1ccc(-c2ccc(CCNC(=O)c3ccc4c(c3)C3(C)CCN(CC5CC5)C(C4)C3C)cc2)cc1C (racemic)
21%
2. COc1ccc(-c2ccc(CCNC(=O)c3ccc4c(c3)C3(C)CCN(CC5CC5)C(C4)C3C)cc2)cc1OC (racemic)
32%
3. CC1C2Cc3ccc(C(=O)NCCc4ccc(-c5ccccc5O)cc4)cc3C1(C)CCN2CC1CC1 (racemic)
48%
4. C[C@H]1[C@H]2Cc3ccc(C(=O)NCCc4ccc(-c5ccc(O)cc5)cc4)cc3[C@]1(C)CCN2CC1CC1
31%
5. CC(C)Oc1ccc(-c2ccc(CCNC(=O)c3ccc4c(c3)C3(C)CCN(CC5CC5)C(C4)C3C)cc2)cc1 (racemic)
35%

###

target: Mu-type opioid receptor (Homo sapiens, UniProt P35372); test: Antagonist activity at human mu opioid receptor expressed in CHO cells assessed as inhibition of DAMGO-induced [35S]GTPgammaS binding after 60 mins by scintillation counting
pIC50: −log10 of the molar value.
The following compounds are listed with their measured pIC50 values.
value-kind: pIC50

1) COc1ccc(-c2ccc(CCNC(=O)c3ccc4c(c3)C3(C)CCN(CC5CC5)C(C4)C3C)cc2)cc1OC (racemic)
7.54
2) COc1ccc2cc(CCNC(=O)c3ccc4c(c3)C3(C)CCN(CC5CC5)C(C4)C3C)ccc2c1 (racemic)
7.35
3) CC(C)Oc1ccc(-c2ccc(CCNC(=O)c3ccc4c(c3)C3(C)CCN(CC5CC5)C(C4)C3C)cc2)cc1 (racemic)
7.89
4) CC1C2Cc3ccc(C(=O)NCCc4ccc(-c5ccccc5O)cc4)cc3C1(C)CCN2CC1CC1 (racemic)
7.19

###

Ki values by entry
molecular target: Delta-type opioid receptor (Homo sapiens, UniProt P41143); assay: Displacement of [3H]Naltrindole from human delta opioid receptor expressed in CHO cells after 3 hrs by scintillation counting
Sequence (P41143 whole entry): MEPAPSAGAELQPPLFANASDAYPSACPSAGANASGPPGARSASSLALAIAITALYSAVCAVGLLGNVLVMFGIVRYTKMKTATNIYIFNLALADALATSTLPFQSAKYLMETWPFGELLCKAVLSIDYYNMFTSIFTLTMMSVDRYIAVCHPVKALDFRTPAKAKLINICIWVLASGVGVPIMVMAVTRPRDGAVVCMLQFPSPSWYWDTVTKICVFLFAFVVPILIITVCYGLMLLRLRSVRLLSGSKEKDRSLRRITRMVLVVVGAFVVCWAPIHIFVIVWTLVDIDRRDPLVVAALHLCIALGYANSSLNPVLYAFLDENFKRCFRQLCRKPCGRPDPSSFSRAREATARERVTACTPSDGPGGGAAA
value-kind: Ki (nM)

1. C[C@H]1[C@H]2Cc3ccc(C(=O)NCCc4ccc(-c5ccc(O)cc5)cc4)cc3[C@]1(C)CCN2CC1CC1
0.78
2. COc1cccc(-c2ccc(CCNC(=O)c3ccc4c(c3)C3(C)CCN(CC5CC5)C(C4)C3C)cc2)c1 (racemic)
1.3
3. CC1C2Cc3ccc(C(=O)NCCc4ccc(-c5cccc(O)c5)cc4)cc3C1(C)CCN2CC1CC1 (racemic)
1.2
4. CC1C2Cc3ccc(C(=O)NCCc4ccc5ccccc5c4)cc3C1(C)CCN2CC1CC1 (racemic)
0.9
5. COc1ccccc1-c1ccc(CCNC(=O)c2ccc3c(c2)C2(C)CCN(CC4CC4)C(C3)C2C)cc1 (racemic)
0.84
6. CC1C2Cc3ccc(O)cc3C1(C)CCN2CC1CC1 (racemic)
2
7. CC1C2Cc3ccc(C(=O)NCCc4ccc(-c5ccccc5O)cc4)cc3C1(C)CCN2CC1CC1 (racemic)
0.24
8. COc1ccc(-c2ccc(CCNC(=O)c3ccc4c(c3)C3(C)CCN(CC5CC5)C(C4)C3C)cc2)cc1OC (racemic)
1.5

###

target: Delta-type opioid receptor (Homo sapiens); assay: Agonist activity at human delta opioid receptor expressed in CHO cells assessed as [35S]GTPgammaS binding after 60 mins by scintillation counting; type: functional, cell-based
pEC50: −log10 of the molar value.
value-kind: pEC50

1. CC1C2Cc3ccc(C(=O)NCCc4ccc(-c5ccc6c(c5)OCO6)cc4)cc3C1(C)CCN2CC1CC1 (racemic)
9.10
2. CC(C)Oc1ccc(-c2ccc(CCNC(=O)c3ccc4c(c3)C3(C)CCN(CC5CC5)C(C4)C3C)cc2)cc1 (racemic)
7.74
3. COc1cccc(-c2ccc(CCNC(=O)c3ccc4c(c3)C3(C)CCN(CC5CC5)C(C4)C3C)cc2)c1 (racemic)
8.92
4. C[C@H]1[C@H]2Cc3ccc(C(=O)NCCc4ccc(-c5ccc(O)cc5)cc4)cc3[C@]1(C)CCN2CC1CC1
9.51
5. COc1ccc2cc(CCNC(=O)c3ccc4c(c3)C3(C)CCN(CC5CC5)C(C4)C3C)ccc2c1 (racemic)
8.12
6. CC1C2Cc3ccc(C(=O)NCCc4ccc(-c5ccccc5O)cc4)cc3C1(C)CCN2CC1CC1 (racemic)
9.80
7. COc1ccc(-c2ccc(CCNC(=O)c3ccc4c(c3)C3(C)CCN(CC5CC5)C(C4)C3C)cc2)cc1C (racemic)
8.55
